assay: Therapeutic index, ratio of IC50 for human BJ cells to IC50 for human CCRF-CEM cells; format: cell-based; conditions: BJ cells versus CCRF-CEM cells, read-out: Ratio IC50
property_label: selectivity ratio

# lookup: selectivity ratio of CC(C)[C@@H]1CC[C@]2(C(=O)O)CC[C@]3(C)[C@H](CC[C@@H]4[C@@]5(C)CC(N=[N+]=[N-])C(=O)C(C)(C)[C@@H]5CC[C@]43C)[C@@H]12 (stereo not given in full)
> 2.9

Need selectivity ratio of `CC(C)[C@@H]1CC[C@]2(C(=O)O)CC[C@]3(C)[C@H](CC[C@@H]4[C@@]5(C)C=C(N)C(=O)C(C)(C)[C@@H]5CC[C@]43C)[C@@H]12` , thanks.
> 1.9

Recorded selectivity ratio for `CC(=O)NC1=C[C@]2(C)[C@H]3CC[C@@H]4[C@H]5[C@H]6OC[C@@]5(CCC6(C)C)CC[C@@]4(C)[C@]3(C)CC[C@H]2C(C)(C)C1=O` , please?
> 1.7

I would be grateful if you could share the reported selectivity ratio for COC(=O)[C@]12CC[C@@H](C(C)C)[C@@H]1[C@H]1CC[C@@H]3[C@@]4(C)CC(S)C(=O)C(C)(C)[C@@H]4CC[C@@]3(C)[C@]1(C)CC2 (stereo not given in full) .
> 1.1

If you can, please state the reported selectivity ratio value of `CC1(C)CC[C@]23CC[C@]4(C)[C@H](CC[C@@H]5[C@@]6(C)C=C(O)C(=O)C(C)(C)[C@@H]6CC[C@]54C)[C@H]2[C@H]1OC3` .
> 2.9

Look up selectivity ratio: CC1(C)CC[C@]23CC[C@]4(C)[C@H](CC[C@@H]5[C@@]6(C)CC(N)[C@H](O)C(C)(C)[C@@H]6CC[C@]54C)[C@H]2[C@H]1OC3 (stereo not given in full)
1.4

Quick one: selectivity ratio of CC(=O)NC1C[C@]2(C)[C@H]3CC[C@@H]4[C@H]5[C@H]6OC[C@@]5(CCC6(C)C)CC[C@@]4(C)[C@]3(C)CC[C@H]2C(C)(C)C1=O (stereo not given in full) ?
> 1.1

Data request, read-out selectivity ratio, for `CC(C)[C@@H]1CC[C@]2(C(=O)O)CC[C@]3(C)[C@H](CC[C@@H]4[C@@]5(C)CC([N+](=O)[O-])=C(O)C(C)(C)[C@@H]5CC[C@]43C)[C@@H]12`
> 1.6

What selectivity ratio value was documented for this molecule, `CC(C)[C@@H]1CC[C@]2(C(=O)O)CC[C@]3(C)[C@H](CC[C@@H]4[C@@]5(C)CC([N+](=O)[O-])([N+](=O)[O-])C(=O)C(C)(C)[C@@H]5CC[C@]43C)[C@@H]12` ?
> 1.7

Looking for the measured selectivity ratio of `CC(C)[C@@H]1CC[C@]2(C(=O)O)CC[C@]3(C)[C@H](CC[C@@H]4[C@@]5(C)C=C(NC6=C[C@]7(C)[C@H]8CC[C@@H]9[C@H]%10[C@H](C(C)C)CC[C@]%10(C(=O)O)CC[C@@]9(C)[C@]8(C)CC[C@H]7C(C)(C)C6=O)C(=O)C(C)(C)[C@@H]5CC[C@]43C)[C@@H]12` , can you help?
> 1.9

###

experiment: Cytotoxicity against human HCT116 cells after 72 hrs by MTS assay; type: functional, cell-based; conditions: HCT-116, 72 h
property_label: IC50

Consider the compound CC1(C)CC[C@]23CC[C@]4(C)[C@H](CC[C@@H]5[C@@]6(C)CC(N)[C@H](O)C(C)(C)[C@@H]6CC[C@]54C)[C@H]2[C@H]1OC3 (stereo not given in full) and give its measured IC50.
4.9 µM

// returns reported IC50 for input COC(=O)[C@]12CC[C@@H](C(C)C)[C@@H]1[C@H]1CC[C@@H]3[C@@]4(C)CC(S)C(=O)C(C)(C)[C@@H]4CC[C@@]3(C)[C@]1(C)CC2 (stereo not given in full)
> 50 µM

Entry `CC(C)[C@@H]1CC[C@]2(C(=O)O)CC[C@]3(C)[C@H](CC[C@@H]4[C@@]5(C)CC([N+](=O)[O-])([N+](=O)[O-])C(=O)C(C)(C)[C@@H]5CC[C@]43C)[C@@H]12` : reported IC50 = ?
> 50 µM

Record request: IC50 value, item `CC(=O)NC1=C[C@]2(C)[C@H]3CC[C@@H]4[C@H]5[C@H]6OC[C@@]5(CCC6(C)C)CC[C@@]4(C)[C@]3(C)CC[C@H]2C(C)(C)C1=O`
> 50 µM

Param item = CC(C)[C@@H]1CC[C@]2(C(=O)O)CC[C@]3(C)[C@H](CC[C@@H]4[C@@]5(C)CC(N=[N+]=[N-])C(=O)C(C)(C)[C@@H]5CC[C@]43C)[C@@H]12 (stereo not given in full) ; retrieve measured IC50.
> 50 µM

Where do the numbers come from? From ChEMBL document CHEMBL3856208.
